Source: patent US20060252807A1

MEASUREMENT TARGET: active p38 alpha enzyme (Upstate Biotechnology) (Homo sapiens, UniProt Q16539)
Construct: purchased Upstate Biotechnology
Sequence (Q16539 whole entry): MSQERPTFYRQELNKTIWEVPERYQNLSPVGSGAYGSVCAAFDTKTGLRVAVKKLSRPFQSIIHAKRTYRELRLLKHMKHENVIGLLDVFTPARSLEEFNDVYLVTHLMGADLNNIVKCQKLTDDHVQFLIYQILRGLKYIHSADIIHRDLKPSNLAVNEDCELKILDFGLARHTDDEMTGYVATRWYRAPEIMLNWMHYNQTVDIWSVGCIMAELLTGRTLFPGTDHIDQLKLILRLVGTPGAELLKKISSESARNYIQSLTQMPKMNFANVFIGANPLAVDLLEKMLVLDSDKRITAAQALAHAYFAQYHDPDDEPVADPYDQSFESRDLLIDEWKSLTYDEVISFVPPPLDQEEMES
METHOD SUMMARY: p38α biochemical assay (ATP turnover, luminescent detection, Cambrex PKlight)
CONDITION: p38α kinase; Table 1 Biological Activity
RESULT TYPE: IC50

1) CC(C)NC(=O)c1csc(-c2c(-c3ccc(F)cc3)noc2CNCc2ccc(F)cc2F)n1 [Example 1465]	> 1 µM
2) CC(C)NC(=O)c1csc(-c2c(-c3ccc(F)cc3)noc2CNCCC(c2ccccc2)c2ccccc2)n1 [Example 1506]	> 1 µM
3) Cc1nc(-c2ccc(F)cc2)c(-c2nc(C(=O)NCc3ccccn3)cs2)s1 [Example 1741]	≤ 1 µM
4) CC(C)NC(=O)c1csc(-c2c(-c3ccc(F)cc3)n[nH]c2C2CCN(C(=O)c3ccc4cc(O)ccc4c3)CC2)n1 [Example 956]	> 1 µM
5) CC(C)NC(=O)c1csc(-c2oc(CNc3cnc4ccccc4c3)nc2-c2ccc(F)cc2)n1 [Example 1346]	> 1 µM
6) CC(C)NC(=O)c1csc(-c2oc(CNC(C)Cc3ccncc3)nc2-c2ccc(F)cc2)n1 (stereo not drawn) [Example 1121]	> 1 µM
7) CC(C)NC(=O)c1csc(-c2c(-c3ccc(F)cc3)noc2CNCc2ccncc2)n1 [Example 1418]	> 1 µM
8) CCOC(=O)C1CCN(C(=O)c2csc(-c3sc(C)nc3-c3ccc(F)cc3)n2)CC1 [Example 1887]	> 1 µM
9) CC(C)NC(=O)c1csc(-c2c(-c3ccc(F)cc3)noc2CNC(C)CCc2ccccc2)n1 (stereo not drawn) [Example 1470]	> 1 µM
10) O=C(NCc1cccs1)c1csc(-c2c(-c3ccc(F)cc3)n[nH]c2C2CCNCC2)n1 [Example 2065]	> 1 µM

Need IC50, item CC(C)NC(=O)c1csc(-c2oc(CNC3CCN(Cc4ccccc4)C3)nc2-c2ccc(F)cc2)n1 (stereo not drawn) [Example 1170] ≤ 1 µM

# get_value(readout='IC50', item= CCOC(=O)CC1C(=O)NCCN1Cc1onc(-c2ccc(F)cc2)c1-c1nc(C(=O)NC(C)C)cs1 (stereo not drawn) [Example 1583] ) > 1 µM

// lookup IC50 for CC(C)NC(=O)c1csc(-c2c(-c3ccc(F)cc3)n[nH]c2C2CCN(C(=O)c3cc4ccccc4o3)CC2)n1 [Example 877] > 1 µM

Consider the compound CC(C)NC(=O)c1csc(-c2c(-c3ccc(F)cc3)n[nH]c2C2CCN(C(=O)c3ccccc3[N+](=O)[O-])CC2)n1 [Example 898] and give its measured IC50. > 1 µM

So what does the record say about IC50 for CC(C)NC(=O)c1csc(-c2c(-c3ccc(F)cc3)n[nH]c2C2CCN(C(=O)c3cscn3)CC2)n1 [Example 833] ? ≤ 1 µM

---

MEASUREMENT TARGET: active p38 alpha enzyme (Upstate Biotechnology) (Homo sapiens)
Construct: purchased Upstate Biotechnology
METHOD SUMMARY: p38α biochemical assay (ATP turnover, luminescent detection, Cambrex PKlight)
CONDITION: p38α biochemical assay, Table 1 Biological Activity
pIC50: −log10 of the molar value.
RESULT TYPE: pIC50

1) Cc1cccc(C(=O)NCc2nc(-c3ccc(F)cc3)c(-c3nc(C(=O)NC(C)C)cs3)o2)c1	< 6.00
2) Cc1cccc(C(=O)NCc2onc(-c3ccc(F)cc3)c2-c2nc(C(=O)NC(C)C)cs2)c1O	< 6.00
3) CC(C)NC(=O)c1csc(-c2oc(CN3CCN(C(=O)c4cc(F)c(F)cc4[N+](=O)[O-])CC3)nc2-c2ccc(F)cc2)n1	≥ 6.00
4) CC(C)NC(=O)c1csc(-c2oc(CNC(=O)Cc3c(F)cccc3F)nc2-c2ccc(F)cc2)n1	≥ 6.00
5) CC(C)NC(=O)c1csc(-c2oc(CNC(=O)C(Cc3ccc(O)cc3)NC(=O)OC(C)(C)C)nc2-c2ccc(F)cc2)n1 (stereo not shown)	≥ 6.00

Which pIC50 value belongs to CC(C)NC(=O)c1csc(-c2c(-c3ccc(F)cc3)noc2CNC(=O)c2ccc(F)cc2F)n1 ? < 6.00

Bench note: what pIC50 did CC(C)NC(=O)c1csc(-c2oc(CN3CCN(C(=O)C4CCCO4)CC3)nc2-c2ccc(F)cc2)n1 (stereo not shown) show? < 6.00
